Entries annotated with measured % Retained 60° C.
biological target: T1, TRCW5 antigen (CD3δε-Fc-Avi) (biotinylated (site not stated)); experiment: ELISA after heat
T1 construct: also called recombinant CD3
T1 sequence (chain, as listed by the source mutant limits assumed): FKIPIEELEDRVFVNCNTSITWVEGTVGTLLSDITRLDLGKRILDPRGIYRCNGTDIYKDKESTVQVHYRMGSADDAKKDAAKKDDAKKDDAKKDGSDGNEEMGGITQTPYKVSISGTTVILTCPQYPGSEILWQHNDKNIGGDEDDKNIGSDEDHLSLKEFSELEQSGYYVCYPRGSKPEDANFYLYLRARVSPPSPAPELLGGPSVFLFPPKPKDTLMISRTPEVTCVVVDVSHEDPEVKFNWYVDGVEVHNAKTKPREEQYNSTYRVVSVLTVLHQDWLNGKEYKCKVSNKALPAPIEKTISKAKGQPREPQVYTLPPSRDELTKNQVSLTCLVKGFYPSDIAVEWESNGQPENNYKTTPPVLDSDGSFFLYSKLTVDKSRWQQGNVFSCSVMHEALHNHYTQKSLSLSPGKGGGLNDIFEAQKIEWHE

binder: CD3B2032 (scFv) scFv: QVQLVQSGAEVKKPGSSVKVSCKASGYTFTRSTMHWVKQAPGQGLEWMGYINPSSAYTNYNQKFQGRVTLTADKSTSTAYMELSSLRSEDTAVYYCASPQVHYDYNGFPYWGQGTLVTVSSGGSEGKSSGSGSESKSTGGSEIVLTQSPATLSASPGERVTLSCSASSSVSYMNWYQQKPGTSPRRLIYDSSKLASGVPARFSGSGSGRDYTLTISSLEPEDFAVYYCQQWSRNPPTFGGGTKVEIK
% Retained 60° C. (%): 88

binder: CD3B2042 (scFv) scFv: QVQLVQSGAEVKKPGSSVKVSCKASGYTFTRSTMHWVRQAPGQGLEWIGYINPSSAYTNYNQKFQGRVTLTADKSTSTAYMELSSLRSEDTAVYYCASPQVHYDYNGFPYWGQGTLVTVSSGGSEGKSSGSGSESKSTGGSEIVLTQSPATLSASPGERVTLSCSASSSVSYMNWYQQKPGTSPRRLIYDSSKLASGVPARFSGSGSGRDYTLTISSLEPEDFAVYYCQQWSRNPPTFGGGTKVEIK
% Retained 60° C. (%): 83

binder: CD3B2045 (scFv) scFv: QVQLVQSGAEVKKPGSSVKVSCKASGYTFTRSTMHWVRQAPGQGLEWIGYINPSSAYTNYNQKFQGRVTLTADKSTSTAYMELSSLRSEDTAVYYCASPQVHYDYNGFPYWGQGTLVTVSSGGSEGKSSGSGSESKSTGGSEIVLTQSPATLSASPGERVTLSCSASSSVSYMNWYQQKPGQAPRRWIYDSSKLASGVPARFSGSGSGRDYTLTISSLEPEDFAVYYCQQWSRNPPTFGGGTKVEIK
% Retained 60° C. (%): 105

binder: CD3B2053 (scFv) scFv: QVQLVQSGAEVKKPGSSVKVSCKASGYTFTRSTMHWVKQAPGQGLEWMGYINPSSAYTNYAQKFQGRVTLTADKSTSTAYMELSSLRSEDTAVYYCASPQVHYDYNGFPYWGQGTLVTVSSGGSEGKSSGSGSESKSTGGSEIVLTQSPATLSASPGERVTLSCSASSSVSYMNWYQQKPGQSPRRLIYDSSKLASGVPARFSGSGSGRDYTLTISSLEPEDFAVYYCQQWSRNPPTFGGGTKVEIK
% Retained 60° C. (%): 112

binder: CD3B2049 (scFv) scFv: QVQLVQSGAEVKKPGSSVKVSCKASGYTFTRSTMHWVKQAPGQGLEWMGYINPSSAYTNYNQKFQGRVTLTADKSTSTAYMELSSLRSEDTAVYYCASPQVHYDYNGFPYWGQGTLVTVSSGGSEGKSSGSGSESKSTGGSEIVLTQSPATLSASPGERVTLSCSASSSVSYMNWYQQKPGTSPRRWIYDSSKLASGVPARFSGSGSGRDYTLTISSLEPEDFAVYYCQQWSRNPPTFGGGTKVEIK
% Retained 60° C. (%): 105

The origin of these recorded values is patent US20250145711A1.
